experiment: compound effects on differentiated 3T3-L1 adipocyte viability – cell-based, 3T3-L1 adipocytes, calcein-AM fluorescence, 48 h, basal, profiling panel (AID 1163); further: test concentration not given here
details: 3T3-L1 adipocytes viability, higher = more signal
Please note: z-score exactly at -0.2 is label 0. Only values below -0.2 get label 1.

compound=CCOC(=O)C1=CC[C@@H](c2cccc(Cl)c2)N(S(=O)(=O)c2ccc(C)cc2)[C@H]1c1ccc(C#N)cc1 class_assignment="label 1"
compound="C=CCC(OC(C)=O)[C@@H]1[C@@H](N(Cc2cc3ccccc3o2)C(=O)c2cccc3ccccc23)c2cc(OCCCO)ccc2N1C(=O)Cc1ccc2ccccc2c1 (stereo partly specified)" class_assignment="label 0"

# check: z-score < -0.2 for COC(=O)[C@@]1(Cc2ccc(OC)cc2)[C@H]2c3cc(C(=O)N4CCCC4)n(CCN4CCOCC4)c3C[C@H]2CN1C(=O)c1ccccc1
label 0

# check: z-score < -0.2 for NC(=O)NCC#Cc1ccc2c(c1)[C@]1(C(=O)N2)[C@H](c2ccccc2OCCO)N2[C@H](c3ccccc3)[C@H](c3ccccc3)OC(=O)[C@H]2[C@@H]1C(=O)N1CCCCCCC1
label 0

# check: z-score < -0.2 for CN(C)CCCCCCNC(=O)[C@@H]1C[C@@H]2C(=O)NCC(=O)N2[C@@H]1c1cccc(OCCO)c1
label 1

# check: z-score < -0.2 for C=CCC(OC(C)=O)[C@@H]1[C@@H](N(Cc2ccc(-c3cccc(C(F)(F)F)c3)o2)C(=O)c2ccc(C)cc2)c2cc(OCCCO)ccc2N1C(=O)c1ccc2ccccc2n1 (stereo partly specified)
label 0

----------
experiment: probe aWnt5a binding to arrayed compounds – biochemical, biotinylated probe, 635/667 nm fluorescence, primary screen (AID 1113);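 further: score merges 667 nm fluorescence intensity with signal-to-noise per printed feature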
details: small-molecule microarray, higher = more signal
composite z-score values, listed per item
Provide a numeric answer; units are not to be included.

compound=CCOC(=O)C[C@H]1[C@H](OC(=O)c2ccc(C(=O)c3ccccc3)cc2)[C@@H](NC(=O)c2ccc3ccccc3n2)c2cc(OCCCO)ccc2N1C(=O)c1ccc2ccccc2n1 obs_value=0.0761
compound="C=CCC(OC(C)=O)[C@@H]1[C@@H](N(Cc2cc3ccccc3o2)C(=O)c2ccc(-c3ccccc3)cc2)c2cc(OCCCO)ccc2N1C(=O)Cc1ccc2ccccc2c1 (stereo partly drawn)" obs_value=-0.0704

Quick one: composite z-score for CCOC(=O)C1=CC[C@@H](c2ccccc2)N(S(=O)(=O)c2ccc(C)cc2)[C@H]1c1ccc(C#N)cc1 ?
-0.0236

----------
composite z-score values, listed per item
study-target: Calmodulin-1 (Homo sapiens)
experiment: small molecules binding Ca-loaded calmodulin-1 – biochemical, small-molecule microarray, Cy5-labelled CALM1, plus calcium, artefact control for SMM control-protein annotation, profiling panel (AID 1112);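 further: score merges spot fluorescence with signal to noise from triplicate slides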
details: Cy5-CALM1 binding fluorescence, higher = more signal

compound=C=C[C@H](OC)[C@@H](OC(=O)Nc1ccc(SC)cc1)c1ccc(OCCO)cc1 study_target="Calmodulin-1 (Homo sapiens)" obs_value=0.362

Quick one: composite z-score for C=C(CCCC)C(=O)CC[C@@H](OC(=O)c1ccccc1-c1ccccc1C(=O)O)c1ccc(CO)o1 ?
-0.483

Quick one: composite z-score for COCCOC(=O)N1C(=O)[C@@]2(c3cc(C#CCCO)ccc31)[C@H](C(=O)NC[C@H](O)c1ccccc1)[C@H]1C(=O)O[C@H](c3ccccc3)[C@H](c3ccccc3)N1[C@@H]2c1ccc(OCCO)cc1 ?
-0.191

Quick one: composite z-score for COc1ccc([Si](C)(C)[C@H]2[C@H](CC(=O)N3CCC[C@H]3CO)O[C@@]3(C(=O)N(Cc4cccc(N5CCC5=O)c4)c4ccccc43)[C@@H]2C)cc1 ?
-0.363

Quick one: composite z-score for O=C1NC(=O)C2C1C=CC(C(O)c1cccs1)N2Nc1ccccn1 (configuration not stated) ?
-0.576

Quick one: composite z-score for O=C(NCc1ccccc1)[C@@H]1c2ccccc2C(=O)N(C2CCCCC2)[C@H]1c1ccc(CO)cc1 ?
-0.545

Quick one: composite z-score for C=C(CCCC)/C(=C/C[C@@H](OC(=O)c1ccncc1)c1ccc(CO)o1)c1cc(C(=O)OC)ccc1OC ?
-0.759
